# study-system: Nucleic Acid
# protocol-notes: Dissociation constant with HIV-1 trans activation responsive element of mRNA was determined
# Assay type: nucleic-acid assay, Human immunodeficiency virus 1
# experimental-parameters: read-out: Kd
Residues, ends and D or L forms follow the SMILES beside them.
Rule for this label: Yes means Kd is less than 3 µM; No means Kd is at least 3 µM.

Field: below-cutoff. Rule: recorded Kd strictly less than 3 µM. Subject: C[C@H](N)C(=O)N[C@@H](C)C(=O)N[C@@H](C)C(=O)N[C@@H](CCCN=C(N)N)C(=O)N[C@@H](CCCCN)C(=O)N[C@@H](CCCCN)C(=O)N[C@@H](CCCN=C(N)N)C(=O)N[C@@H](CCCN=C(N)N)C(=O)N[C@@H](CCC(N)=O)C(=O)N[C@@H](CCCN=C(N)N)C(=O)N[C@@H](CCCN=C(N)N)C(=O)N[C@@H](CCCN=C(N)N)C(=O)N[C@@H](C)C(=O)N[C@@H](C)C(=O)N[C@@H](C)C(=O)O (H-AAARKKRRQRRRAAA-OH)
Yes

Field: below-cutoff. Rule: recorded Kd strictly less than 3 µM. Subject: C[C@H](N)C(=O)N[C@@H](C)C(=O)N[C@@H](C)C(=O)N[C@@H](C)C(=O)N[C@@H](CCCCN)C(=O)N[C@@H](CCCCN)C(=O)N[C@@H](CCCN=C(N)N)C(=O)N[C@@H](CCCN=C(N)N)C(=O)N[C@@H](C)C(=O)N[C@@H](CCCN=C(N)N)C(=O)N[C@@H](CCCN=C(N)N)C(=O)N[C@@H](CCCN=C(N)N)C(=O)N[C@@H](C)C(=O)N[C@@H](C)C(=O)N[C@@H](C)C(=O)O (H-AAAAKKRRARRRAAA-OH)
Yes

Field: below-cutoff. Rule: recorded Kd strictly less than 3 µM. Subject: C[C@H](N)C(=O)N[C@@H](C)C(=O)N[C@@H](C)C(=O)N[C@@H](CCCN=C(N)N)C(=O)N[C@@H](CCCCN)C(=O)N[C@@H](CCCCN)C(=O)N[C@@H](CCCN=C(N)N)C(=O)N[C@@H](CCCN=C(N)N)C(=O)N[C@@H](C)C(=O)N[C@@H](CCCN=C(N)N)C(=O)N[C@@H](CCCN=C(N)N)C(=O)N[C@@H](CCCN=C(N)N)C(=O)N[C@@H](C)C(=O)N[C@@H](C)C(=O)N[C@@H](C)C(=O)O (H-AAARKKRRARRRAAA-OH)
Yes

Field: below-cutoff. Rule: recorded Kd strictly less than 3 µM. Subject: C[C@H](N)C(=O)N[C@@H](C)C(=O)N[C@@H](C)C(=O)N[C@@H](C)C(=O)N[C@@H](C)C(=O)N[C@@H](CCCN=C(N)N)C(=O)N[C@@H](CCCN=C(N)N)C(=O)N[C@@H](C)C(=O)N[C@@H](CCCN=C(N)N)C(=O)N[C@@H](CCCN=C(N)N)C(=O)N[C@@H](CCCN=C(N)N)C(=O)N[C@@H](C)C(=O)N[C@@H](C)C(=O)N[C@@H](C)C(=O)N[C@@H](C)C(=O)N[C@@H](C)C(=O)O (H-AAAAARRARRRAAAAA-OH)
No

Field: below-cutoff. Rule: recorded Kd strictly less than 3 µM. Subject: C[C@H](N)C(=O)N[C@@H](C)C(=O)N[C@@H](C)C(=O)N[C@@H](C)C(=O)N[C@@H](C)C(=O)N[C@@H](CCCN=C(N)N)C(=O)N[C@@H](CCCN=C(N)N)C(=O)N[C@@H](CCCN=C(N)N)C(=O)N[C@@H](CCCN=C(N)N)C(=O)N[C@@H](CCCN=C(N)N)C(=O)N[C@@H](C)C(=O)N[C@@H](C)C(=O)N[C@@H](C)C(=O)N[C@@H](C)C(=O)N[C@@H](C)C(=O)N[C@@H](C)C(=O)O (H-AAAAARRRRRAAAAAA-OH)
No

Field: below-cutoff. Rule: recorded Kd strictly less than 3 µM. Subject: C[C@H](N)C(=O)N[C@@H](C)C(=O)N[C@@H](C)C(=O)N[C@@H](CCCN=C(N)N)C(=O)N[C@@H](C)C(=O)N[C@@H](C)C(=O)N[C@@H](CCCN=C(N)N)C(=O)N[C@@H](CCCN=C(N)N)C(=O)N[C@@H](C)C(=O)N[C@@H](CCCN=C(N)N)C(=O)N[C@@H](CCCN=C(N)N)C(=O)N[C@@H](CCCN=C(N)N)C(=O)N[C@@H](C)C(=O)N[C@@H](C)C(=O)N[C@@H](C)C(=O)O (H-AAARAARRARRRAAA-OH)
Yes
